- TESTED_SYSTEM: UniProt:Q13822
- EXPERIMENT_SUMMARY: Inhibition of C-terminal FLAG-tagged human recombinant autotaxin using synthetic substrate FS-3 at 10 uM measured every 2 mins by FRET assay relative to control
Assign 1 (yes) whenever inhibition does not fall below 20%; assign 0 (no) whenever it does.

Reference set, count: 5
{"COMPOUND": "CCOc1cc(CC2SC(N3CCN(C4=NC(=O)C(Cc5ccc(O)c(OCC)c5)S4)CC3)=NC2=O)ccc1O (configuration not stated)", "TESTED_SYSTEM": "UniProt:Q13822", "CLASS_ASSIGNMENT": "1 (yes)"}
{"COMPOUND": "CC(=O)C1=C(C)NC(SCC(=O)Nc2ccc(Br)cc2)=C(C#N)C1c1ccc(O)cc1 (configuration not stated)", "TESTED_SYSTEM": "UniProt:Q13822", "CLASS_ASSIGNMENT": "1 (yes)"}
{"COMPOUND": "COc1cccc(CNS(=O)(=O)c2ccc3c(c2)NC(=O)C(C)N3C(=O)CN2CCN(c3ccccn3)CC2)c1OC (configuration not stated)", "TESTED_SYSTEM": "UniProt:Q13822", "CLASS_ASSIGNMENT": "0 (no)"}
{"COMPOUND": "COc1cc(CCNC(=O)c2ccc3c(c2)nc(-c2cccc4ccccc24)n3CCc2ccc(OC)c(OC)c2)cc(OC)c1", "TESTED_SYSTEM": "UniProt:Q13822", "CLASS_ASSIGNMENT": "1 (yes)"}
{"COMPOUND": "CC(CNC(=O)c1cc(-c2ccoc2)nc2ccccc12)C(=O)NCCNc1ccccc1 (configuration not stated)", "TESTED_SYSTEM": "UniProt:Q13822", "CLASS_ASSIGNMENT": "0 (no)"}

Request: Would you say O=C(O)c1ccccc1-c1ccc(/C=C2/SC(=S)N(Cc3ccccc3)C2=O)o1 shows inhibition at minimum 20%?
Response: 1 (yes)
